Taken from ChEMBL document CHEMBL5506066.

Molecular target: von Hippel-Lindau disease tumor suppressor (Homo sapiens, UniProt P40337)
Sequence (P40337 whole entry): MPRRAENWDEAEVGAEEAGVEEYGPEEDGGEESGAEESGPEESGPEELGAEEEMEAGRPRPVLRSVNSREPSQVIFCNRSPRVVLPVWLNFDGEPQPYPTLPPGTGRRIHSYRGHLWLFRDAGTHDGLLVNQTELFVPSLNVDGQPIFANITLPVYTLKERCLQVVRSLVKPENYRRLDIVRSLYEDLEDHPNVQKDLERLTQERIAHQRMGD
The molecules listed here are annotated with their Kd.

{"columns": ["COMPOUND_STRING", "LT_GT_EQ", "Kd (µM)"],
 "data": [
  ["NC(=O)[C@@H](Cc1ccc(-c2ccccc2)cc1)NC(=O)[C@@H]1C[C@@H](O)CN1C(=O)Cc1ccccn1", ">", 57.5],
  ["CC(=O)N[C@H](C(=O)N1C[C@H](O)C[C@H]1C(=O)N[C@H](Cc1ccc(-c2ccccc2F)cc1)C(N)=O)C(C)(C)C", "=", 4.4],
  ["NC(=O)[C@@H](Cc1ccc(-c2ccccc2)cc1)NC(=O)[C@@H]1C[C@@H](O)CN1C(=O)Cn1ccnn1", ">", 57.5],
  ["Cc1ncsc1-c1ccc(CNC(=O)[C@@H]2C[C@@H](O)CN2C(=O)[C@@H](n2cc(C3CC3)nn2)C(C)(C)C)cc1", "=", 0.0063]
]}

----------
Assay: Oral bioavailability in female C57Bl/6 mouse at 10 mg/kg measured upto 8 hrs by LC-MS/MS analysis
Format: ADME, organism-based
Conditions: in vivo
The molecules listed here are annotated with their bioavailability.
MEASUREMENT_LABEL: bioavailability (%)

{"columns": ["COMPOUND_STRING", "UNIT_SYMBOL", "ENDPOINT_VALUE"],
 "data": [
  ["Cc1ncsc1-c1ccc2c(c1)CCCC[C@@H]2NC(=O)[C@@H]1C[C@@H](O)CN1C(=O)[C@@H](n1cc(C2CC2)nn1)C(C)(C)C", "%", 46.5],
  ["CC(=O)N[C@H](C(=O)N1C[C@H](O)C[C@H]1C(=O)N[C@@H](C)c1ccc(-c2scnc2C)cc1)C(C)(C)C", "%", 2.7]
]}

----------
Consider the following Kd values measured on von Hippel-Lindau disease tumor suppressor (Homo sapiens, UniProt P40337).

{"columns": ["MOLECULE", "SYSTEM_UNDER_TEST", "LT_GT_EQ", "Kd [µM]"],
 "data": [
  ["CC(=O)N[C@H](C(=O)N1C[C@H](O)C[C@H]1C(=O)N[C@H](Cc1ccc(-c2ccc(F)cn2)cc1)C(N)=O)C(C)(C)C", "von Hippel-Lindau disease tumor suppressor (Homo sapiens, UniProt P40337)", "=", 6.6],
  ["CC(=O)N[C@H](C(=O)N1C[C@H](O)C[C@H]1C(=O)N[C@H](Cc1ccc(C#N)cc1)C(N)=O)C(C)(C)C", "von Hippel-Lindau disease tumor suppressor (Homo sapiens, UniProt P40337)", ">", 57.5],
  ["CC(=O)N[C@H](C(=O)N1C[C@H](O)C[C@H]1C(=O)N[C@H](Cc1ccc(I)cc1)C(N)=O)C(C)(C)C", "von Hippel-Lindau disease tumor suppressor (Homo sapiens, UniProt P40337)", "=", 6.1],
  ["CC(=O)N[C@H](C(=O)N1C[C@H](O)C[C@H]1C(=O)NC(C(N)=O)c1ccc(-c2scnc2C)cc1)C(C)(C)C (mixture of isomers)", "von Hippel-Lindau disease tumor suppressor (Homo sapiens, UniProt P40337)", "=", 5.17],
  ["Cc1noc(CC(=O)N2C[C@H](O)C[C@H]2C(=O)N[C@H](Cc2ccc(-c3ccccc3)cc2)C(N)=O)n1", "von Hippel-Lindau disease tumor suppressor (Homo sapiens, UniProt P40337)", ">", 57.5],
  ["CC(=O)N[C@H](C(=O)N1C[C@H](O)C[C@H]1C(=O)N[C@@H](C)c1ccc(-c2scnc2C)cc1)C(C)(C)C", "von Hippel-Lindau disease tumor suppressor (Homo sapiens, UniProt P40337)", "=", 0.18],
  ["CC(C)[C@@H](C(=O)N1C[C@H](O)C[C@H]1C(=O)N[C@H](Cc1ccc(-c2ccccc2)cc1)C(N)=O)c1cnn(C)c1", "von Hippel-Lindau disease tumor suppressor (Homo sapiens, UniProt P40337)", ">", 57.5]
]}

----------
Target: von Hippel-Lindau disease tumor suppressor (Homo sapiens)
Test: biochemical
Description: Binding affinity to VHL (unknown origin)-NanoLuc fusion protein expressed in HEK293 cells assessed as apparent dissociation constant incubated for 30 mins in presence of digitonin by NanoBRET assay
pKd: −log10 of the molar value.
MEASUREMENT_LABEL: pKd

{"columns": ["COMPOUND_STRING", "SYSTEM_UNDER_TEST", "MEASUREMENT_LABEL", "LT_GT_EQ", "ENDPOINT_VALUE"],
 "data": [
  ["CC(=O)N[C@H](C(=O)N1C[C@H](O)C[C@H]1C(=O)N[C@H](Cc1ccc(-c2ccc(F)cn2)cc1)C(N)=O)C(C)(C)C", "von Hippel-Lindau disease tumor suppressor (Homo sapiens)", "pKd", "=", 5.54],
  ["NC(=O)[C@@H](Cc1ccc(-c2ccccc2)cc1)NC(=O)[C@@H]1C[C@@H](O)CN1C(=O)[C@H](C1CCC1)n1cc(C2CC2)nn1", "von Hippel-Lindau disease tumor suppressor (Homo sapiens)", "pKd", "=", 7.00],
  ["CC(=O)NC1(C(=O)N2C[C@H](O)C[C@H]2C(=O)N[C@H](Cc2ccc(-c3ccccc3)cc2)C(N)=O)CCC1", "von Hippel-Lindau disease tumor suppressor (Homo sapiens)", "pKd", "<", 4.29],
  ["Cc1noc(CC(=O)N2C[C@H](O)C[C@H]2C(=O)N[C@H](Cc2ccc(-c3ccccc3)cc2)C(N)=O)n1", "von Hippel-Lindau disease tumor suppressor (Homo sapiens)", "pKd", "<", 4.29]
]}

----------
Consider the following Kd values measured on von Hippel-Lindau disease tumor suppressor (Homo sapiens, UniProt P40337).
MEASUREMENT_LABEL: Kd (µM)

{"columns": ["MOLECULE", "MEASUREMENT_LABEL", "UNIT_SYMBOL", "LT_GT_EQ", "ENDPOINT_VALUE"],
 "data": [
  ["NC(=O)[C@@H](Cc1ccc(-c2ccccc2)cc1)NC(=O)[C@@H]1C[C@@H](O)CN1C(=O)Cc1cccnn1", "Kd", "µM", ">", 57.5],
  ["NC(=O)[C@@H](Cc1ccc(-c2ccccc2)cc1)NC(=O)[C@@H]1C[C@@H](O)CN1C(=O)Cc1cccnc1", "Kd", "µM", ">", 57.5],
  ["CC(C)(C)[C@H](N=[N+]=[N-])C(=O)N1C[C@H](O)C[C@H]1C(=O)N[C@H](Cc1ccc(-c2ccccc2)cc1)C(N)=O", "Kd", "µM", "=", 35],
  ["CC(=O)NC(C(=O)N1C[C@H](O)C[C@H]1C(=O)N[C@H](Cc1ccc(-c2ccccc2)cc1)C(N)=O)C12CC(C(F)(F)F)(C1)C2 (some centres not stated)", "Kd", "µM", "=", 6.6],
  ["CC(=O)N[C@H](C(=O)N1C[C@H](O)C[C@H]1C(=O)N[C@H](Cc1ccc(-c2ccccc2)cc1)C(N)=O)C1CCNCC1", "Kd", "µM", ">", 57.5],
  ["CC(=O)N[C@H](C(=O)N1C[C@H](O)C[C@H]1C(=O)N[C@@H](C(N)=O)c1ccc(-c2scnc2C)cc1)C(C)(C)C", "Kd", "µM", "=", 1.99],
  ["CC(=O)NC1(C(=O)N2C[C@H](O)C[C@H]2C(=O)N[C@H](Cc2ccc(-c3ccccc3)cc2)C(N)=O)CCC1", "Kd", "µM", ">", 57.5]
]}

----------
Biological target: von Hippel-Lindau disease tumor suppressor (Homo sapiens, UniProt P40337)
Assay: biochemical
pKd: −log10 of the molar value.

{"columns": ["COMPOUND_STRING", "LT_GT_EQ", "pKd"],
 "data": [
  ["CC(=O)N[C@H](C(=O)N1C[C@H](O)C[C@H]1C(=O)N[C@H](Cc1ccc(C#N)cc1)C(N)=O)C(C)(C)C", "=", 5.05],
  ["CSC[C@H](NC(C)=O)C(=O)N1C[C@H](O)C[C@H]1C(=O)N[C@H](Cc1ccc(-c2ccccc2)cc1)C(N)=O", "=", 4.73],
  ["Cc1ncsc1-c1ccc([C@H](C)NC(=O)[C@@H]2C[C@@H](O)CN2C(=O)[C@@H](n2cc(C3CC3)nn2)C(C)(C)C)cc1", "=", 8.41],
  ["CC(=O)N[C@@H](Cc1cscn1)C(=O)N1C[C@H](O)C[C@H]1C(=O)N[C@H](Cc1ccc(-c2ccccc2)cc1)C(N)=O", "=", 4.85],
  ["CC(=O)N[C@H](C(=O)N1C[C@H](O)C[C@H]1C(=O)N[C@H](Cc1ccc(-c2ccccc2F)cc1)C(N)=O)C(C)(C)C", "=", 5.57],
  ["CC(=O)N1CCC[C@H]1C(=O)N1C[C@H](O)C[C@H]1C(=O)N[C@H](Cc1ccc(-c2ccccc2)cc1)C(N)=O", "=", 4.90],
  ["Cc1ncc(CC(=O)N2C[C@H](O)C[C@H]2C(=O)N[C@H](Cc2ccc(-c3ccccc3)cc2)C(N)=O)s1", "<", 4.29],
  ["CC(=O)N[C@H](C(=O)N1C[C@H](O)C[C@H]1C(=O)N[C@@H](C(N)=O)c1ccc(-c2scnc2C)cc1)C(C)(C)C", "=", 6.68],
  ["NC(=O)[C@@H](Cc1ccc(-c2ccccc2)cc1)NC(=O)[C@@H]1C[C@@H](O)CN1C(=O)Cc1cccnc1", "<", 4.29],
  ["NC(=O)[C@@H](Cc1ccc(-c2ccccc2)cc1)NC(=O)[C@@H]1C[C@@H](O)CN1C(=O)Cn1ccnn1", "<", 4.29],
  ["Cc1cn([C@H](C(=O)N2C[C@H](O)C[C@H]2C(=O)N[C@H](Cc2ccc(-c3ccccc3)cc2)C(N)=O)C(C)C)cn1", "=", 4.31],
  ["CC(C)(C)n1nnc(CC(=O)N2C[C@H](O)C[C@H]2C(=O)N[C@H](Cc2ccc(-c3ccccc3)cc2)C(N)=O)n1", "=", 4.31],
  ["CSCC[C@H](NC(C)=O)C(=O)N1C[C@H](O)C[C@H]1C(=O)N[C@H](Cc1ccc(-c2ccccc2)cc1)C(N)=O", "=", 5.05],
  ["CC[C@H](C)[C@@H](C(=O)N1C[C@H](O)C[C@H]1C(=O)N[C@H](Cc1ccc(-c2ccccc2)cc1)C(N)=O)n1cc(C2CC2)nn1", "=", 7.06],
  ["CC(=O)N[C@H](C(=O)N1C[C@H](O)C[C@H]1C(=O)N[C@H](Cc1ccc(C(C)(C)C)cc1)C(N)=O)C(C)(C)C", "<", 4.29],
  ["COc1ccccc1-c1ccc(C[C@@H](NC(=O)[C@@H]2C[C@@H](O)CN2C(=O)[C@@H](NC(C)=O)C(C)(C)C)C(N)=O)cc1", "=", 5.37],
  ["Cc1cc(CC(=O)N2C[C@H](O)C[C@H]2C(=O)N[C@H](Cc2ccc(-c3ccccc3)cc2)C(N)=O)on1", "=", 4.61]
]}
